Test system: HT29
Assay: In-vitro antiproliferative assay, HT29
Type: cell-based, human
Settings: Table 4; 72 h, Alamar blue; read-out: IC50 HT-29

[
  {
    "structure.smiles.string": "Cc1c(N[S+](=O)([O-])c2c(Cl)cc(CCCC3CCNCC3)cc2Cl)c(CC(C)C)nn1C",
    "unit.annotation": "µM",
    "IC50": 0.281
  }
]

----------
Assay: CNS penetration: drug concentration in blood and brain after i.v. dosing
Type: in vivo
Conditions: brain, iv; female NMRI mouse, single i.v. dose 1.0 mg/kg, t = 5 min, average of three animals; read-out: Conc (ng/ml in brain)

[
  {
    "structure.smiles.string": "CCN(CC)Cc1cccc(-c2ccc([S+](=O)([O-])N(C)c3c(C)nn(C)c3C)cc2)c1",
    "concentration at 5 min [ng/mL]": 93
  }
]

----------
Target: T. brucei N-myristoyl transferase (Trypanosoma brucei brucei (strain 927/4 GUTat10.1))
Sequence (Q388H8 1-446): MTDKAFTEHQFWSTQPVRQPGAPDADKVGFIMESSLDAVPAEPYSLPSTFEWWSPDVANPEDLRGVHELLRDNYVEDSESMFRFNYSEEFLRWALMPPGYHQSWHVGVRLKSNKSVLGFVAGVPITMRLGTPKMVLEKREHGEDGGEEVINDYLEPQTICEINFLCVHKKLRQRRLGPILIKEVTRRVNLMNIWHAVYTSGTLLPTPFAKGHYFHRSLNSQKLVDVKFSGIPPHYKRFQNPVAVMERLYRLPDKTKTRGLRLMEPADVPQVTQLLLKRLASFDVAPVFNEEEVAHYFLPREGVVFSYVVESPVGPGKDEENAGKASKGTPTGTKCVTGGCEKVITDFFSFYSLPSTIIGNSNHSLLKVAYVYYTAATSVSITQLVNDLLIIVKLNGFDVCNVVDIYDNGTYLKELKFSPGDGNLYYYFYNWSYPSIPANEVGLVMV
Experiment: biochemical
Format: biochemical
Conditions: value printed without enzyme tag in the NMT Enzyme column (taken as T. brucei NMT); read-out: IC50 (μM) NMT Enzyme
Below: a set of entries, each annotated with reported IC50.

[
  {
    "structure.smiles.string": "Cc1nn(C)c(C)c1N[S+](=O)([O-])c1ccc(NCc2cccc(N(C)C)c2)nc1",
    "unit.annotation": "µM",
    "relation.qualifier": "=",
    "IC50": 2.6
  },
  {
    "structure.smiles.string": "Cc1nn(C)c(C)c1N[S+](=O)([O-])c1ccc(NCCc2ccc(-c3ccccc3)cc2)nc1",
    "unit.annotation": "µM",
    "relation.qualifier": "=",
    "IC50": 60
  },
  {
    "structure.smiles.string": "Cc1cc(C(C)(C)C)cc(C)c1[S+](=O)([O-])Nc1c(C)nn(C)c1C",
    "unit.annotation": "µM",
    "relation.qualifier": "=",
    "IC50": 0.5
  },
  {
    "structure.smiles.string": "Cc1nn(C)c(C)c1N[S+](=O)([O-])c1ccc2c(c1)CC(=O)N2",
    "unit.annotation": "µM",
    "relation.qualifier": "=",
    "IC50": 15.9
  },
  {
    "structure.smiles.string": "Cc1nn(C)c(C)c1N(C)[S+](=O)([O-])c1ccc(N2CCc3c(N)cccc3C2)nc1",
    "unit.annotation": "µM",
    "relation.qualifier": "=",
    "IC50": 0.57
  },
  {
    "structure.smiles.string": "Cc1nn(C)c(C)c1N[S+](=O)([O-])c1ccc(-c2ccccc2)cc1",
    "unit.annotation": "µM",
    "relation.qualifier": "=",
    "IC50": 10.5
  },
  {
    "structure.smiles.string": "Cc1nn(C)c(C)c1N(CCCO)S(=O)(=O)c1c(Cl)cc(Br)cc1Cl",
    "unit.annotation": "µM",
    "relation.qualifier": "=",
    "IC50": 0.36
  },
  {
    "structure.smiles.string": "Cc1nn(C)c(C)c1N[S+](=O)([O-])c1ccc(N2CCc3ccccc3C2)nc1",
    "unit.annotation": "µM",
    "relation.qualifier": "=",
    "IC50": 0.9
  },
  {
    "structure.smiles.string": "Cc1nn(C)c(C)c1N[S+](=O)([O-])c1ccc(Nc2ccc(Oc3ccccc3)cc2)nc1",
    "unit.annotation": "µM",
    "relation.qualifier": ">",
    "IC50": 100
  },
  {
    "structure.smiles.string": "Cc1nn(C)c(C)c1N[S+](=O)([O-])c1c(Cl)cc(-c2cccc3cnccc23)cc1Cl",
    "unit.annotation": "µM",
    "relation.qualifier": "=",
    "IC50": 26.9
  },
  {
    "structure.smiles.string": "COc1cc(OC)cc(-c2cc(Cl)c([S+](=O)([O-])Nc3c(C)nn(C)c3C)c(Cl)c2)c1",
    "unit.annotation": "µM",
    "relation.qualifier": "=",
    "IC50": 4.3
  },
  {
    "structure.smiles.string": "Cc1nn(C)c(C)c1N[S+](=O)([O-])c1ccc(-n2cccn2)cc1",
    "unit.annotation": "µM",
    "relation.qualifier": "=",
    "IC50": 4.8
  },
  {
    "structure.smiles.string": "COc1cc(C)c([S+](=O)([O-])Nc2c(C)n[nH]c2C)c(C)c1C",
    "unit.annotation": "µM",
    "relation.qualifier": ">",
    "IC50": 100
  },
  {
    "structure.smiles.string": "COc1ccc(SCc2ccc([S+](=O)([O-])Nc3c(C)nn(C)c3C)cc2)cc1OC",
    "unit.annotation": "µM",
    "relation.qualifier": "=",
    "IC50": 3.3
  },
  {
    "structure.smiles.string": "Cc1nn(C)c(C)c1N(CCO)[S+](=O)([O-])c1c(Cl)cc(Br)cc1Cl",
    "unit.annotation": "µM",
    "relation.qualifier": "=",
    "IC50": 1.1
  },
  {
    "structure.smiles.string": "Cc1cnn(-c2ccc(CNc3ccc([S+](=O)([O-])Nc4c(C)nn(C)c4C)cn3)cc2)n1",
    "unit.annotation": "µM",
    "relation.qualifier": "=",
    "IC50": 4.4
  },
  {
    "structure.smiles.string": "Cc1nn(C)c(C)c1N[S+](=O)([O-])c1ccc(Cn2cnc(-c3ccccc3)c2)cc1",
    "unit.annotation": "µM",
    "relation.qualifier": "=",
    "IC50": 2.5
  },
  {
    "structure.smiles.string": "Cc1nn(C)c(C)c1N[S+](=O)([O-])c1c(C)c(C)c(C)c(C)c1C",
    "unit.annotation": "µM",
    "relation.qualifier": "=",
    "IC50": 62.5
  },
  {
    "structure.smiles.string": "COc1cc(C)c([S+](=O)([O-])Nc2onc(C)c2C)c(C)c1C",
    "unit.annotation": "µM",
    "relation.qualifier": ">",
    "IC50": 100
  },
  {
    "structure.smiles.string": "Cc1nn(C)c(C)c1N[S+](=O)([O-])c1ccc(-c2cc(C(F)(F)F)n(C)n2)s1",
    "unit.annotation": "µM",
    "relation.qualifier": "=",
    "IC50": 32
  },
  {
    "structure.smiles.string": "Cc1nn(C)c(C)c1N[S+](=O)([O-])c1c(Cl)cc(-c2cccc(OCC(C)C)c2)cc1Cl",
    "unit.annotation": "µM",
    "relation.qualifier": "=",
    "IC50": 35
  },
  {
    "structure.smiles.string": "Cc1nn(C)c(C)c1N[S+](=O)([O-])c1ccc(CSc2ccc3ccccc3c2)cc1",
    "unit.annotation": "µM",
    "relation.qualifier": "=",
    "IC50": 47.6
  },
  {
    "structure.smiles.string": "Cc1nn(C)c(C)c1N[S+](=O)([O-])c1ccc(N2CCOCC2)nc1",
    "unit.annotation": "µM",
    "relation.qualifier": "=",
    "IC50": 2
  },
  {
    "structure.smiles.string": "Cc1nn(C)c(C)c1N[S+](=O)([O-])c1ccc(COc2ccc3cc[nH]c3c2)cc1",
    "unit.annotation": "µM",
    "relation.qualifier": "=",
    "IC50": 4.5
  },
  {
    "structure.smiles.string": "Cc1nn(C)c(C)c1N[S+](=O)([O-])c1ccc(CN2CCCCC2)cc1",
    "unit.annotation": "µM",
    "relation.qualifier": ">",
    "IC50": 100
  },
  {
    "structure.smiles.string": "Cc1nn(C)c(C)c1N[S+](=O)([O-])c1cc(Cl)sc1Cl",
    "unit.annotation": "µM",
    "relation.qualifier": "=",
    "IC50": 6.4
  },
  {
    "structure.smiles.string": "Cc1nn(C)c(C)c1N(CC1CC1)[S+](=O)([O-])c1c(Cl)cc(Br)cc1Cl",
    "unit.annotation": "µM",
    "relation.qualifier": "=",
    "IC50": 0.67
  },
  {
    "structure.smiles.string": "COc1cc(C)c([S+](=O)([O-])Nc2cnc3ccccn23)c(C)c1C",
    "unit.annotation": "µM",
    "relation.qualifier": "=",
    "IC50": 95
  },
  {
    "structure.smiles.string": "COc1ccc([S+](=O)([O-])Nc2c(C)nn(C)c2C)cc1Br",
    "unit.annotation": "µM",
    "relation.qualifier": "=",
    "IC50": 2.6
  },
  {
    "structure.smiles.string": "Cc1nn(C)c(C)c1N[S+](=O)([O-])c1c(Cl)cc(C#Cc2cncn2C)cc1Cl",
    "unit.annotation": "µM",
    "relation.qualifier": "=",
    "IC50": 0.67
  },
  {
    "structure.smiles.string": "Cc1nn(C)c(C)c1N[S+](=O)([O-])c1cccc2c(N(C)C)cccc12",
    "unit.annotation": "µM",
    "relation.qualifier": "=",
    "IC50": 1.6
  },
  {
    "structure.smiles.string": "Cc1nn(C)c(C)c1N(C1CC1)[S+](=O)([O-])c1c(Cl)cc(Br)cc1Cl",
    "unit.annotation": "µM",
    "relation.qualifier": "=",
    "IC50": 0.59
  },
  {
    "structure.smiles.string": "Cc1nn(C)c(C)c1N[S+](=O)([O-])c1c(Cl)cc(C#Cc2ccccc2)cc1Cl",
    "unit.annotation": "µM",
    "relation.qualifier": "=",
    "IC50": 34.3
  },
  {
    "structure.smiles.string": "Cc1nn(C)c(C)c1N[S+](=O)([O-])c1ccc(NCc2cccnc2)nc1",
    "unit.annotation": "µM",
    "relation.qualifier": "=",
    "IC50": 2.7
  },
  {
    "structure.smiles.string": "Cc1nc(-c2ccc([S+](=O)([O-])Nc3c(C)nn(C)c3C)cc2)cs1",
    "unit.annotation": "µM",
    "relation.qualifier": "=",
    "IC50": 12.1
  },
  {
    "structure.smiles.string": "Cc1cc(N2CCCC2=O)cc(C)c1[S+](=O)([O-])Nc1c(C)nn(C)c1C",
    "unit.annotation": "µM",
    "relation.qualifier": "=",
    "IC50": 8.3
  }
]

Reference source: patent US9156811B2
